- Tested on: Streptococcus pyogenes
- Assay method text: In vitro antibacterial activity was tested for Streptococcus pyogenes C203
- Assay type: functional
Reported MIC values for a set of compounds

{"columns": ["Compound", "Subject of test", "Unit tag", "MIC"],
 "data": [
  ["O=C(O)c1cn(C2CC2)c2cc(N3CCNCC3)c(F)cc2c1=O [CIPROFLOXACIN]", "Streptococcus pyogenes", "µg/mL", 0.8],
  ["CCOc1c(N2CCC(N)C2)c(F)c(N)c2c(=O)c(C(=O)O)cn(C3CC3)c12 (configuration not stated)", "Streptococcus pyogenes", "µg/mL", 0.1],
  ["COc1c(N2CCC(N)C2)c(F)cc2c(=O)c(C(=O)O)cn(C3CC3)c12 (configuration not stated)", "Streptococcus pyogenes", "µg/mL", 0.025],
  ["COc1c(N2CCNCC2)c(F)cc2c(=O)c(C(=O)O)cn(C3CC3)c12", "Streptococcus pyogenes", "µg/mL", 0.1],
  ["CCOc1c(N2CCC(C)(CN)C2)c(F)cc2c(=O)c(C(=O)O)cn(C3CC3)c12 (configuration not stated)", "Streptococcus pyogenes", "µg/mL", 0.1],
  ["COc1c(N2CCN(C)CC2)c(F)cc2c(=O)c(C(=O)O)cn(C3CC3)c12", "Streptococcus pyogenes", "µg/mL", 0.1],
  ["NC1CCN(c2cc3c(cc2F)c(=O)c(C(=O)O)cn3C2CC2)C1 (configuration not stated)", "Streptococcus pyogenes", "µg/mL", 0.006]
]}

Data credit: ChEMBL document CHEMBL1128719
